Value source: patent US4182878A

Test system: Ehrlich's tumor cells
procedureText: Carcinostatic activity in ddY mice subcutaneously inoculated with Ehrlich's tumor cells
Format: in vivo
conditionSet: number of mice died in the group during 14 days after transplantation; 1 mg daily intraabdominal injection; dosage period 10 days (I, IV) or 7 days (XI, VI, X)
Provide the reported Toxicity, ratio of died mice of each item.

Can you look up the measured Toxicity, ratio of died mice of NC(=S)c1ncnc2c1cnn2-c1ccccc1 for me?
0/4

Can you look up the measured Toxicity, ratio of died mice of NC(=O)c1ncnc2c1cnn2-c1ccccc1 for me?
0/5

Can you look up the measured Toxicity, ratio of died mice of NC(=NO)c1ncnc2c1cnn2-c1ccccc1 for me?
0/4

Can you look up the measured Toxicity, ratio of died mice of O=C(O)c1ncnc2c1cnn2-c1ccccc1 for me?
0/4

Can you look up the measured Toxicity, ratio of died mice of N#Cc1ncnc2c1cnn2-c1ccccc1 for me?
1/5
